Please respond with reported TGI for every item in the list.
System: KM12 colon
Experiment Summary: NCI tumour cell line growth inhibition, 48 h

INSERT INTO results (molecule, assay_metric, test_result) VALUES
  ('O=C(N/N=C/c1ccc(O)cc1O)c1ccc(Nc2ccnc(C(F)(F)F)c2)cc1', 'TGI', '> 100 µM'),
  ('COc1ccccc1/C=C1/Sc2scc(CC(=O)Nc3ccccc3)[n+]2C1=O', 'TGI', '> 100 µM');

# ---- query molecule ----
Q. Print KM12 colon TGI for CC1CSc2nc3[nH]c(=S)[nH]c3c(=O)n2C1 (stereo not drawn) .
A. > 100 µM

----------
Tested on: COLO 205 colon
Experiment Summary: NCI tumour cell line growth inhibition, 48 h
Assay Metric: TGI

Look over these answered cases.
INSERT INTO measurements (molecule, test_result) VALUES
  ('CCCCCC(/C=N/NC(N)=S)C(O)(C(F)(F)F)C(F)(F)F (stereo unspecified)', '> 10 µM'),
  ('O=C(O)c1ccc([N+](=O)[O-])c2c(=O)c3ccccc3[nH]c12', '> 100 µM'),
  ('CN1CCN(Cc2ccc(NC(=O)c3[nH]ncc3Nc3ncnc4c3CCC4)cc2)CC1', '2.25 µM');

Batch of 4 molecules: report TGI for each.
1. Nc1ccccc1Sc1ccc(Cl)cc1
2. Cc1cc(S(N)(=O)=O)c(S/C(=N\Nc2ccc([N+](=O)[O-])cc2)c2ccc(Cl)cc2)cc1Cl
3. NC1CCC[C@@H](O)[C@H]1O (stereo partly specified)
4. COc1cccc(NC(=O)N/C(=C/c2ccc(N(CCC#N)CCC#N)cc2)NC(=O)c2cc([N+](=O)[O-])ccc2Cl)c1

A.
44.1 µM
> 100 µM
> 100 µM
> 100 µM

Batch of 3 molecules: report TGI for each.
1. N#Cc1nsnc1-c1nc(-c2nsnc2C#N)nc(-c2nsnc2C#N)n1
2. CCN(CC)C(=S)N/N=C(\C)c1ccccc1O
3. CC1=NN(C(=O)CC(=O)Nc2cccc(Cl)c2)C(=O)C1N=Nc1ccc(S(=O)(=O)c2ccc(N=NC3C(=O)N(C(=O)CC(=O)Nc4cccc(Cl)c4)N=C3C)cc2)cc1 (stereo unspecified)

A.
1: > 100 µM; 2: > 100 µM; 3: > 100 µM

Batch of 3 molecules: report TGI for each.
1. C[C@@H]1CCN(C(=O)CC#N)C[C@@H]1N(C)c1ncnc2[nH]ccc12
2. N#CSCC1CC(O)(c2ccccc2)C(c2ccccc2)C(c2ccc(F)cc2)O1 (stereo unspecified)
3. CCOC(=O)C(Cc1c[nH]c2cc([N+](=O)[O-])ccc12)(NC(C)=O)C(=O)OCC

A.
1. > 100 µM
2. 9.97 µM
3. > 1000 µM

Batch of 3 molecules: report TGI for each.
1. CCc1oc2ccccc2c1C(=O)c1cc(Br)c(O)c(Br)c1
2. C/C(=C1/N=C(c2cc([N+](=O)[O-])ccc2Cl)N(C2=CC=C(Cl)CC2)C1=O)c1cc2ccccc2oc1=O
3. O=[N+]([O-])c1cc(Br)cc2c1[nH]c1ccc(Br)cc12

A.
40.6 µM
> 100 µM
> 100 µM

----------
Please respond with reported TGI for every item in the list.
System: NCI-H522 lung
Experiment Summary: NCI tumour cell line growth inhibition, 48 h

INSERT INTO measurements (compound, test_result) VALUES
  ('CCO[C@H]1C[C@@H](c2ccccc2)[C@]2(C)C[C@H](C(=O)OC)ON2O1', '> 100 µM'),
  ('CC1C=C(NCC2(CO)CCC2)NC(N)=N1 (stereo unspecified)', '> 100 µM'),
  ('COC(=O)CC1(O)C(C=C(C)C)C(C(=O)OC)C(=O)C(C(=O)OC)C1C(=O)OC (stereo unspecified)', '> 100 µM');

Batch of 5 compounds: report TGI for each.
1. Cc1ccc(C(=O)N/N=C/c2cccc(Oc3ccccc3)c2)cn1
2. CO/N=C1/NC(=O)/C(=C/c2ccc3ncccc3c2)S1
3. CN(/N=N/c1nc(OCc2ccccc2)c2[nH]cnc2n1)C(=O)N(C)/N=N/c1nc(OCc2ccccc2)c2[nH]cnc2n1
4. N#CC1(c2nc3ccccc3o2)C(=O)C(=O)N(c2ccc(Cl)c(Cl)c2)C(=O)C1=O
5. Cc1ccc(C2=Nc3ccccc3NC(=O)C2)cc1

A.
1. > 69.8 µM
2. > 25 µM
3. > 100 µM
4. > 100 µM
5. > 100 µM

Batch of 7 compounds: report TGI for each.
1. CCOC(=O)c1cc2cc(CSc3ccccc3)ccc2oc1=O
2. COc1cc(/C=C2\CCc3cc(OC)c(OC)cc3C2=O)cc(OC)c1
3. COc1ccc(C=NC23CC4CC(CC(C4)C2)C3)cc1
4. C=C(Br)C(Cl)(CBr)CCC(Br)C(C)(C)Cl (stereo unspecified)
5. COC1=C(C(=O)OC(C)(C)C)[C@]2(C)C(C(=O)OC(C)(C)C)C(OC)=C(C(=O)OC(C)(C)C)[C@]2(C)C1C(=O)OC(C)(C)C (stereo partly specified)
6. c1ccc2[nH]c(-c3ccc(OCCCCCOc4ccc(-c5nc6ccccc6[nH]5)cc4)cc3)nc2c1
7. COc1cccc(/C=C/C(=O)c2cc3c(N)c(C(=O)Nc4cccc(Cl)c4C)sc3nc2C)c1

A.
1: > 100 µM; 2: > 42.3 µM; 3: > 100 µM; 4: > 10 µM; 5: > 100 µM; 6: 6.62 µM; 7: 2.86 µM

Q. Supply TGI value. Item: O=[N+]([O-])C(=C/C1CCCCC1)/C(=C\C1CCCCC1)[N+](=O)[O-]
A. 4.3 µM
